So I've got a bunch of molecules here, and I need their viability, T/C values.
Test system: 266295-075-R-J1-PDC spheroid viability
Test: Anticancer human tumor 266295-075-R-J1-PDC patient-derived head and neck squamous carcinoma cell line growth inhibition [POLQ]
Conditions: second compound 10 µM; first compound 3.16 µM; stronger effect = lower value; spheroids with HUVEC and MSC
Numbers only, in %.

[[record]]
molecule = "CCc1cc2c(N3CCc4c(cc(Cn5ccnc5)cc4-c4cn(C)nc4C(F)(F)F)C3=O)cc(C)nc2c(OC)n1 + Nc1ccc(C#CCN(C(=O)Cc2ncc(C(F)(F)F)cc2C(F)(F)F)c2ccc(F)cc2)nn1"
units_text = "%"
value = 127


# return viability, T/C for each item in the list
1. CNCc1ccc(-c2[nH]c3cc(F)cc4c3c2CCNC4=O)cc1 + Cc1cccc(N(C)C(=O)C2C(O)CCN2c2nc(C)cc(C(F)(F)F)c2C#N)c1
2. Nc1ccn(C2OC(CO)C(O)C2(F)F)c(=O)n1 (stereo unspecified) + Cc1cccc(N(C)C(=O)C2C(O)CCN2c2nc(C)cc(C(F)(F)F)c2C#N)c1

1. 107
2. 82.1

# return viability, T/C for each item in the list
1. O=c1[nH]cc(F)c(=O)[nH]1 + Cc1cccc(N(C)C(=O)C2C(O)CCN2c2nc(C)cc(C(F)(F)F)c2C#N)c1
2. CC1COCCN1c1cc(C2(O)CC3CCC(C2)O3)c2cnn(-c3ccn[nH]3)c2n1 (stereo unspecified) + Cc1cccc(N(C)C(=O)C2C(O)CCN2c2nc(C)cc(C(F)(F)F)c2C#N)c1
3. CC(C)n1c(=O)n(C)c2cnc3cc(F)c(-c4ccc(OCCCN5CCCCC5)nc4)cc3c21 + Nc1ccc(C#CCN(C(=O)Cc2ncc(C(F)(F)F)cc2C(F)(F)F)c2ccc(F)cc2)nn1

1. 92.9
2. 35.2
3. 66.4

---

Tested on: 266295-075-R-J1-PDC spheroid viability
Assay: Anticancer human tumor 266295-075-R-J1-PDC cell line growth inhibition [POLQ];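 further: spheroids exposed to compounds for seven days before readout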
Conditions: second compound 0.0316 µM; first compound 0.316 µM; stronger effect = lower value; spheroids with HUVEC and MSC
Threshold 90%. viability, T/C below it: 1.0. viability, T/C at it or above: 0.0.

Observe how each entry below is paired with its result.
[[record]]
compound = "CC1COCCN1c1cc(-c2ccnn2C)c2ccnc(-c3ccn[nH]3)c2n1 (stereo not given) + Nc1ccc(C#CCN(C(=O)Cc2ncc(C(F)(F)F)cc2C(F)(F)F)c2ccc(F)cc2)nn1"
test_target = "266295-075-R-J1-PDC spheroid viability"
label = 1.0

[[record]]
compound = "O=c1[nH]cc(F)c(=O)[nH]1 + COC1C(OC(N)=O)C(O)C(Oc2ccc3c(O)c(NC(=O)c4ccc(O)c(CC=C(C)C)c4)c(=O)oc3c2C)OC1(C)C"
test_target = "266295-075-R-J1-PDC spheroid viability"
label = 0.0

[[record]]
compound = "C=CC(=O)N1CCN(c2nc(=O)n(-c3c(C)ccnc3C(C)C)c3nc(-c4c(O)cccc4F)c(F)cc23)C(C)C1 (stereo not given) + Cc1cccc(N(C)C(=O)C2C(O)CCN2c2nc(C)cc(C(F)(F)F)c2C#N)c1"
test_target = "266295-075-R-J1-PDC spheroid viability"
label = 0.0

[[record]]
compound = "CCc1cc2c(N3CCc4c(cc(Cn5ccnc5)cc4-c4cn(C)nc4C(F)(F)F)C3=O)cc(C)nc2c(OC)n1 + Nc1ccc(C#CCN(C(=O)Cc2ncc(C(F)(F)F)cc2C(F)(F)F)c2ccc(F)cc2)nn1"
test_target = "266295-075-R-J1-PDC spheroid viability"
label = 0.0


Bench note: check whether CC(C)n1c(=O)n(C)c2cnc3cc(F)c(-c4ccc(OCCCN5CCCCC5)nc4)cc3c21 + Cc1cccc(N(C)C(=O)C2C(O)CCN2c2nc(C)cc(C(F)(F)F)c2C#N)c1 shows viability, T/C below 90%
0.0
